test system: HS-PSS; assay: relative IC50 (inflection point of fitted dose-response curve, CellTiter-Glo viability, 72 h; top asymptote may be below 50% inhibition); higher = less potent
property.name: relative IC50 (nM)
Use nM as the unit, but write only the number.

CC(C)c1cc(-c2n[nH]c(=O)n2-c2ccc3c(ccn3C)c2)c(O)cc1O [Ganetespib]: 42.7
Cc1ccc(C(=O)Nc2ccc(Oc3cc4cnn(C)c4cc3-c3cn[nH]c3)c(F)c2)c(=O)n1-c1ccc(F)cc1 [Merestinib]: 245
COc1cc2nccc(Oc3ccc(NC(=O)Nc4cc(C)on4)c(Cl)c3)c2cc1OC [Tivozanib]: 3730
Cc1cc(Nc2cc(N3CCN(C)CC3)nc(Sc3ccc(NC(=O)C4CC4)cc3)n2)n[nH]1 [Tozasertib]: 315

### Prompt GET /values?readout=relative IC50&system=HS-PSS&item= Cc1cc(-c2ncc(CC(=O)Nc3ccc(-c4cnccn4)cn3)cc2C)ccn1 [NVP-LGK974]
### Response 1970

### Prompt GET /values?readout=relative IC50&system=HS-PSS&item= CC(C)N(CCCNC(=O)Nc1ccc(C(C)(C)C)cc1)C[C@H]1O[C@@H](n2cc(Br)c3c(N)ncnc32)[C@H](O)[C@@H]1O [SGC0946]
### Response 1940
